- Test system: death induced by pulmonary infarction in mice
- assay procedure: Antithrombotic activity: inhibition of death by collagen-induced pulmonary infarction in mice
- Format: in vivo, male ICR mice
- conditions: Mus musculus, 1 h; 30 mg/kg oral, 10 minutes before i.v. collagen; lethality in an hour; read-out: Pulmonary infarction inhibitory activity
inhibition in vivo at 30 mg/kg of 90% or higher: rule met. Under 90%: rule not met.

Worked set:
| compound | discrete label |
| --- | --- |
| O=C(NCCCOc1ccc2[nH]c(=O)ccc2c1)N(C1CC1)[C@@H]1CCCC[C@H]1OCCCO [Ex. 17] | rule met |
| CCN(CCCOc1ccc2[nH]c(=O)ccc2c1)C(=O)N(C)C1CCCCC1 [Ex. 15] | rule not met |
| O=C(NCCOc1ccc2[nH]c(=O)ccc2c1)N(C1CC1)[C@@H]1CCCC[C@H]1O (relative stereo) [Ex. 30] | rule met |

Q: Has O=C(NCCCOc1cc(F)c2[nH]c(=O)ccc2c1)N(C1CC1)[C@@H]1CCCC[C@H]1O (relative stereo) [Ex. 26] a recorded inhibition in vivo at 30 mg/kg greater than or equal to 90%?
Ans: rule not met

Q: Has CN(C(=O)N(CCCO)CCCOc1ccc2[nH]c(=O)ccc2c1)C1CCCCC1 [Ex. 22] a recorded inhibition in vivo at 30 mg/kg greater than or equal to 90%?
Ans: rule not met

Q: Has CC(O)CN(CCCOc1ccc2[nH]c(=O)ccc2c1)C(=O)N(C)C1CCCCC1 (centres unmarked) [Ex. 21] a recorded inhibition in vivo at 30 mg/kg greater than or equal to 90%?
Ans: rule not met

Q: Has O=C(NCCCOc1ccc2[nH]c(=O)ccc2c1)N(C1CC1)[C@@H]1CCCC[C@H]1O [Ex. 9] a recorded inhibition in vivo at 30 mg/kg greater than or equal to 90%?
Ans: rule met

====

- system name: cGMP-inhibited cAMP phosphodiesterase (PDE3) (Homo sapiens, UniProt Q14432)
- Sequence (Q14432 whole entry): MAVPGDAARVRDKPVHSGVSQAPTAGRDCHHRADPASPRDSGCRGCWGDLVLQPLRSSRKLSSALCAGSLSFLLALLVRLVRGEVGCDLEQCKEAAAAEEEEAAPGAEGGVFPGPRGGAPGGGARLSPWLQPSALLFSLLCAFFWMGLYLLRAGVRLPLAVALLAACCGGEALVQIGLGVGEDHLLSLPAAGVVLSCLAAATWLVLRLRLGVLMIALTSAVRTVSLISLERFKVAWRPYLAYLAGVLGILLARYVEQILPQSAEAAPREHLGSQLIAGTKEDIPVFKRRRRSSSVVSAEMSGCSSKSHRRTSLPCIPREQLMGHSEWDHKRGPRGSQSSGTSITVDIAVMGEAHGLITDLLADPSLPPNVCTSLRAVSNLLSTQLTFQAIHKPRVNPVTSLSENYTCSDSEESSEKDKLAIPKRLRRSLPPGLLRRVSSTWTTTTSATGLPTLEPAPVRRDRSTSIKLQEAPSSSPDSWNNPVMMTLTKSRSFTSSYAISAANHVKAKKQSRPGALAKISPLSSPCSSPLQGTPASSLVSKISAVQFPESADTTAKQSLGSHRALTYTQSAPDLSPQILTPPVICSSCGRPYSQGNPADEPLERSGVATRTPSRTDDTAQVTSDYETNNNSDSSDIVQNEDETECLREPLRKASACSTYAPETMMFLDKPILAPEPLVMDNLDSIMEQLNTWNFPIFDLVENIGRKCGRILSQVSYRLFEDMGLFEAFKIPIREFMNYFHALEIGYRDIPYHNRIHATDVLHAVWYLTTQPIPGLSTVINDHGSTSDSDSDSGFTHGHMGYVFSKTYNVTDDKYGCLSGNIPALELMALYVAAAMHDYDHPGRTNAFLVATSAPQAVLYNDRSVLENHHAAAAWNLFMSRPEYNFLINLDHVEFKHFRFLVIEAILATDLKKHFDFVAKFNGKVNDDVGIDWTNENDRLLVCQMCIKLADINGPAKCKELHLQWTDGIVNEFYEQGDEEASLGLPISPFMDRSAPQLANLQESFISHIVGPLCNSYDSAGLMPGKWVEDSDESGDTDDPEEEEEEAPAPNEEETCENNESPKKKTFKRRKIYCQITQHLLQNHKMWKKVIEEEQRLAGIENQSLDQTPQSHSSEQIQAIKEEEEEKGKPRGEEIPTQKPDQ
- assay procedure: cGMP-inhibited cAMP phosphodiesterase (PDE3) inhibitory activity
- conditions: 0.4 μM [8-3H]cAMP, pH 8.0, 30° C., 15 minutes; recombinant enzyme from Sf9; read-out: PDE inhibitory activity IC50
Item-by-item account of pIC50
Note on pIC50: it is the negative log10 of concentration, concentration in mol/L.

| compound | pIC50 |
| --- | --- |
| CN(NC(=O)NCCCOc1ccc2[nH]c(=O)ccc2c1)C1CCCCC1 [Ex. 28] | 9.08 |

# compound O=C(NCCCOc1ccc2[nH]c(=O)ccc2c1)N(C1CC1)[C@@H]1CCCC[C@H]1OCCCO [Ex. 17] ; its pIC50 = 7.22

# compound CN(CCCOc1ccc2[nH]c(=O)ccc2c1)C(=O)N(C)C1CCCCC1 [Ex. 12] ; its pIC50 = 6.71

# compound O=C(NCCCOc1cc(F)c2[nH]c(=O)ccc2c1)N(C1CC1)[C@@H]1CCCC[C@H]1O (relative stereo) [Ex. 26] ; its pIC50 = 7.13

# compound COc1cc(OCCCNC(=O)N(C2CC2)[C@@H]2CCCC[C@H]2O)cc2ccc(=O)[nH]c12 (relative stereo) [Ex. 27] ; its pIC50 = 5.66

# compound CCC(O)CN(C(=O)NCCCOc1ccc2[nH]c(=O)ccc2c1)C1CCCCC1 (stereo not drawn) [Ex. 10] ; its pIC50 = 7.61

# compound O=C(NCCCOc1ccc2[nH]c(=O)ccc2c1)N(C1CC1)[C@@H]1CCCC[C@H]1O [Ex. 9] ; its pIC50 = 7.03

# compound O=C(NCCCOc1ccc2[nH]c(=O)ccc2c1)N(C1CCCCCCC1)[C@@H]1CCCC[C@H]1O (relative stereo) [Ex. 24] ; its pIC50 = 9.19

# compound O=C(NCCCOc1ccc2nc(O)ccc2c1)N(C1CC1)[C@H]1CCCC[C@@H]1O [Ex. 8] ; its pIC50 = 6.95

Origin of the recorded values: patent US6143763A
